The reported numbers originate from patent US12415781B2.

Test system: triple negative human breast cancer cells and circulating tumor cells (CTC) from patients with colorectal cancer
Assay: Cell viability (CellTiter-Blue), dose response of cancer cells, FIG. 1B
Type: cell-based
Details: Homo sapiens, 72 h, 1st of four values listed 'respectively', cell line not named
Procedure: FIG. 1. […] (FIG. 1B) Dose response viability curves of cancer cells treated as indicated for 72 h. […] (FIG. 1D) Dose response viability curves of HMLER cells in epithelial and mesenchymal states treated as indicated for 72 h. […] Cell viability. […] CellTiter-Blue® reagent (G8081, Promega) was added after 72 h treatment and cells were incubated for 1-2 h before recording fluorescence intensities (ex. 560/20 nm; em. 590/10 nm) using a Perkin Elmer Wallac 1420 Victor2 Microplate Reader.
Where a name gives a salt, the structure may show the parent alone.
ENDPOINT_LABEL: IC50 (mM)
Give a bare numeral; the unit mM is implied.

Data request: I am curious: what IC50 value has been reported for CN(C)C(=N)NC(=N)N [metformin, 1,1-Dimethylbiguanide hydrochloride] ?
Data returned: 12.1
